The compounds listed here are annotated with their half-life at 1 µM.
# Procedure Text: Metabolic stability in pre-warmed pooled human liver microsomes assessed as half life at 1 uM measured upto 60 mins by LC-MS analysis
# Type: ADME, Microsome

Known half-life at 1 µM results, listed for orientation:
                               given_smiles  data_value
0  Cl.FC(F)(F)Oc1ccc(OC2=CC(c3ccc[nH]3)=N/C2=C\NC23CC4CC(CC(C4)C2)C3)cc1    > 60 min
1     CCCCCCN/C=C1\N=C(c2ccc[nH]2)C=C1OC.Cl    17.1 min
2  CCc1ccc(C2=N/C(=C\NC3CCCCCCC3)C(C)=C2C)[nH]1.Cl    > 60 min
3  COC1=CC(c2ccc[nH]2)=N/C1=C\Nc1cccc(OC(F)(F)F)c1.Cl    > 60 min
4  COC1=CC(c2ccc(Cc3ccc(OC)cc3)[nH]2)=N/C1=C\NC1CCCCCC1.Cl    25.6 min
5  CC1=C(C)/C(=C/NC2CCCCCC2)N=C1c1ccc[nH]1.Cl    45.1 min

Attention now turns to another entry.
Field half-life at 1 µM (entry Cl.FC(F)(F)Oc1ccc(C2=CC(c3ccc[nH]3)=N/C2=C\NC23CC4CC(CC(C4)C2)C3)cc1 ) reads > 60 min

Ref: ChEMBL document CHEMBL5506039
